Target of assay: hGPR17L (Homo sapiens)
Sequence (Q13304 whole entry): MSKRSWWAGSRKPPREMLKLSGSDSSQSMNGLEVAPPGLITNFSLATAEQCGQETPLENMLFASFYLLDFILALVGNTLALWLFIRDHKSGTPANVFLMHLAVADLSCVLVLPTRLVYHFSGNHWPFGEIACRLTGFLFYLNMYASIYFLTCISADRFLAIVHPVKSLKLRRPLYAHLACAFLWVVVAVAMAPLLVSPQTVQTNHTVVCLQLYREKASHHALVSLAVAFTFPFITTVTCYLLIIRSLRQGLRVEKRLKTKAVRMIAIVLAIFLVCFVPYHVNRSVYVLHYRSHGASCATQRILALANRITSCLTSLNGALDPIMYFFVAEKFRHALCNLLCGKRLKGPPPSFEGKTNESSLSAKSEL
Experimental protocol: Calcium mobilization assay
Type: cell-based
Settings: 1321-N1, read-out: % Efficacy Avg ± SEM
Measurement label: Emax

Use the examples below as a reference point.
O=C(NC1CCCc2c1[nH]c1c(Cl)cccc21)c1ccc(Br)cc1 (centres unmarked): 40.4%
COc1ccc(C(=O)NC2CCCc3c2[nH]c2c(Cl)cccc32)cc1OC (centres unmarked): 109%
CS(=O)(=O)c1ccc(C(=O)NC2CCCc3c2[nH]c2c(Cl)cccc32)cc1F (centres unmarked): 38%
O=C(O)c1ccc(C(=O)NC2CCCc3c2[nH]c2c(Cl)cccc32)cc1 (centres unmarked): 49.4%

Ask | Data request, read-out Emax, for COc1cc(C(=O)NC2CCCc3c2[nH]c2c(Cl)cccc32)cc(OC)c1OC (centres unmarked)
Reply | 47.4%
